# Assay System: UniProt Q07817
# Sequence (Q07817 whole entry): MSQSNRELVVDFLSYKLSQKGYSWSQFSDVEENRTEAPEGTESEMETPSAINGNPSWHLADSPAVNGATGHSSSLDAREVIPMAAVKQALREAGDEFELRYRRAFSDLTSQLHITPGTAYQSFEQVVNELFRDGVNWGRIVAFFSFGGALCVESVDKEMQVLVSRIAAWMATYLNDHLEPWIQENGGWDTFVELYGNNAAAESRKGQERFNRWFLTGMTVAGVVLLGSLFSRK
# Assay Remarks: TR-FRET binding assay, GST-Bcl-XL with F-Bak peptide probe
# Measurement Parameters: TR-FRET Binding Affinity, GST-Bcl-XL, F-Bak peptide probe
Assay Readout: Ki

The following compounds have reported results that may help.
CC1(C)CCC(CN2CCN(c3ccc(C(=O)NS(=O)(=O)c4ccc(S(C)(=O)=O)cc4)c(Oc4cccc5[nH]ccc45)c3)CC2)=C(c2ccc(Cl)cc2)C1
> 660 nM
CC(c1ccccc1-c1ccc(Cl)cc1)N1CCN(c2ccc(C(=O)NS(=O)(=O)c3ccc(NCC4CCOCC4)c([N+](=O)[O-])c3)c(Oc3cccc4[nH]ccc34)c2)CC1 (stereo not drawn)
> 660 nM

Input line: Quick check: Ki of CC1(C)CCC(CN2CCN(c3ccc(C(=O)NS(=O)(=O)c4ccc(NCC5CCOCC5)c([N+](=O)[O-])c4)c(Oc4cccc5[nH]ccc45)c3)CC2)=C(c2ccc(Cl)cc2)C1 ?
Output line: > 660 nM
